biological target: SLBPfl (human, UniProt Q14493 1-270); assay: fluorescence anisotropy; 0.5 mM EDTA; Fluorescence anisotropy: 20 mM HEPES pH 7.5, 100 mM NaCl, 0.5 mM EDTA, 100 ug/ml BSA; 30 min at room temperature, read at 25 C; one-site fit with Hill slope, n=3; conditions: protein: recombinant; tags: 6xHis-TEV (N-terminal); label: 5' 6-FAM; partial hairpin; 3' arm lacks last 2 stem nt
readout-label: Kd

Return reported Kd; argument: CCAAAGGCUCUUUUCAGAG (structured_RNA) [6-FAM-SL19]
~500 nM

Values compiled from paper PMC12775136.
